- target_of_assay: rat CB2 (Rattus norvegicus, UniProt Q9QZN9)
- Sequence (Q9QZN9 1-360): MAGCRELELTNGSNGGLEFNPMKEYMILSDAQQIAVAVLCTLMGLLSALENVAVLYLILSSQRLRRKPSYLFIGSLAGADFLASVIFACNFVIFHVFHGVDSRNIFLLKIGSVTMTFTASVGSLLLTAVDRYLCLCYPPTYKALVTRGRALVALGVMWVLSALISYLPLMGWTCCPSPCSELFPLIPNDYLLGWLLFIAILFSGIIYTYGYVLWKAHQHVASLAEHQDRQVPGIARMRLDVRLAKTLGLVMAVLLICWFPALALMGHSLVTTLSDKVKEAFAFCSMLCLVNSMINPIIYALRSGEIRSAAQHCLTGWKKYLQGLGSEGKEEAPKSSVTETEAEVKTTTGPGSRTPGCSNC
- procedure_summary: rat CB2 radioligand binding assay ([3H]CP 55,940 competition)
- Design: expressed in transfected cells; host or cells: HEK293
- condition_description: rat CB2 (Ki, nM), HEK293 membranes, 0.5 nM [3H]CP 55,940
Class (required): determined from Ki; valid ranges are bottom = under 6 nM, middle = from 6 nM up to 30 nM, top = 30 nM and over

{"compound": "Cn1c(C(C)(C)C)c/c(=N\\C(=O)c2cc(C(F)(F)F)ccc2OC[C@@H]2CCCO2)n1Cc1ccc(F)cc1", "cat": "middle"}
{"compound": "Cn1c(C(C)(C)C)c/c(=N\\C(=O)c2cc(C(F)(F)F)ccc2OC[C@@H]2CCCO2)n1C[C@H]1CCCO1", "cat": "bottom"}
{"compound": "Cn1c(C(C)(C)C)c/c(=N\\C(=O)c2cc(C#N)ccc2OCC(C)(C)O)n1CC1CCCC1", "cat": "middle"}
{"compound": "CC(=O)NCCOc1ccc(C(F)(F)F)cc1C(=O)/N=c1\\cc(C(C)(C)C)n(C)n1C[C@H]1CCCO1", "cat": "middle"}
{"compound": "Cn1c(C(C)(C)C)c/c(=N\\C(=O)c2cc(C(F)(F)F)ccc2OCC2CCSCC2)n1C[C@H]1CCCO1", "cat": "top"}
{"compound": "Cn1c(C(C)(C)C)c/c(=N\\C(=O)c2cc(C(F)(F)F)ccc2OCCS(C)(=O)=O)n1C[C@H]1CCCO1", "cat": "middle"}
{"compound": "CC[C@H](O)COc1ccc(C(F)(F)F)cc1C(=O)/N=c1\\cc(C(C)(C)C)n(C)n1C[C@H]1CCCO1", "cat": "bottom"}
{"compound": "CCCCn1/c(=N/C(=O)c2cc(C(F)(F)F)ccc2OCC(C)(C)O)cc(C(C)(C)C)n1C", "cat": "middle"}
{"compound": "CC(C)(O)COc1ccc(C(F)(F)F)cc1C(=O)/N=c1\\sc(C(C)(C)C)nn1CC1(C)COC1", "cat": "middle"}
{"compound": "Cn1c(C(C)(C)C)c/c(=N\\C(=O)c2cc(C(F)(F)F)ccc2OCCC2=CCCC2)n1C[C@H]1CCCO1", "cat": "bottom"}
{"compound": "Cn1c(C(C)(C)C)c/c(=N\\C(=O)c2cc(C(F)(F)F)ccc2OCC2(C)COC2)n1C[C@H]1CCCO1", "cat": "top"}
{"compound": "Cn1c(C(C)(C)C)c/c(=N\\C(=O)c2cc(C(F)(F)F)ccc2OC[C@@H]2CCN2S(C)(=O)=O)n1C[C@H]1CCCO1", "cat": "top"}
{"compound": "CCCCn1nc(C(C)(C)C)s/c1=N\\C(=O)c1cc(C(F)(F)F)ccc1OCC1CCCCN1C (stereo not drawn)", "cat": "bottom"}
{"compound": "Cn1c(C(C)(C)C)c/c(=N\\C(=O)c2cc(C(F)(F)F)ccc2OCCN2CCCC2=O)n1C[C@H]1CCCO1", "cat": "top"}
